Parameter pIC50: see the listing below.
molecular target: Estrogen receptor beta (Homo sapiens, UniProt Q92731)
Sequence (Q92731 whole entry): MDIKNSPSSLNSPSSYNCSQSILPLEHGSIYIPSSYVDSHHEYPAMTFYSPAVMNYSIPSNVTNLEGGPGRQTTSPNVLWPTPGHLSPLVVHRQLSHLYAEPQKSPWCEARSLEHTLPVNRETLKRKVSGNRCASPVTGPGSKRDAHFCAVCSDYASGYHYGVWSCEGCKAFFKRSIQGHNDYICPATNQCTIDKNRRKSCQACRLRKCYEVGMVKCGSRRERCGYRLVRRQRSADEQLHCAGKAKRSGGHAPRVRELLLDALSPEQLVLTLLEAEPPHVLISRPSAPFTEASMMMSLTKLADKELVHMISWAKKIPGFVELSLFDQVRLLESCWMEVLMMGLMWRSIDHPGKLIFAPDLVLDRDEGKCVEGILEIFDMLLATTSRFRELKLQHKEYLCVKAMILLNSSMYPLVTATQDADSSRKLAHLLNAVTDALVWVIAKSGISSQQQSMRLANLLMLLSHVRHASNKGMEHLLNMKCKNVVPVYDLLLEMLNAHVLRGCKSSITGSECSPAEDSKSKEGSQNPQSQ
pIC50 is defined as minus the log10 of a concentration measured in mol/L.

>>> print(df.to_string())
                          molecule  observable  measured_result
0  Cc1c(O)ccc2c1oc(=O)c1c(C)cccc12       pIC50             7.03

In: Which pIC50 is reported for this molecule? C=CCc1cc(C)cc2c(=O)oc3c(C)c(O)ccc3c12
Out: 7.46

In: Entry under review: Cc1c(O)cc(C)c2c1oc(=O)c1c(C)c(O)ccc12 . Reported pIC50?
Out: 8.17

In: Any idea what its pIC50 is? The molecule is Cc1c(O)ccc2c1oc(=O)c1c(C)c(NS(C)(=O)=O)ccc12
Out: 6.36

In: Entry CCC1Oc2c(ccc(O)c2C)-c2c(C)cc(O)c(C)c21 (stereo not drawn) : reported pIC50 = ?
Out: 8.64

In: Recorded pIC50 of Cc1c(O)c(Cl)c(C)c2c1c(=O)oc1c(Cl)c(O)ccc12 , please.
Out: 7.66
